Origin of measurements: ChEMBL document CHEMBL3430912

Test: GSK_TCAKS: pIC50 HepG2 human cell line viability assay using luminiscence. […] Seeding density was checked to ensure that new mono-layers were not more than 50% confluent at the time of harvesting. Cell suspension was added to 500 mL of the same medium at a final density of 1.2 * 10^5 cells/mL. This cell suspension was dispensed (25 uL, 3000 cells per well) into 384-well clear-bottom plates using a Multidrop Combi dispenser. Prior to addition of the cell suspension, the screening compounds (250 nL) were pre-dispensed into the plates with an Echo liquid handler. Plates were incubated for 48 h at 37C, 5% CO2. After incubation, plates equilibrated at room temperature for 30 min before proceeding to develop the luminescent signal. The signal developer, CellTiter-Glo Reagent, was allowed to equilibrate at room temperature for 30 min and added to the plates (25uL per well) using a Multidrop Combi dispenser. Plates were left for 10 min at room temperature for stabilization and then read using a ViewLux.
Format: toxicity, cell-based
outcomeMeasure: IC50 at 48 h

For orientation, consider the following solved cases.
# molecule, IC50 at 48 h
records = [
    ("C[C@@H](Oc1cc(-n2cnc3ccc(CC(O)CO)cc32)sc1C(N)=O)c1ccccc1Cl (stereo not given in full)", "> 100 µM"),
    ("N#Cc1ccc(S(=O)(=O)N2CCC3(CCN(c4ccccc4)C3=O)CC2)cc1", "> 100 µM"),
    ("O=C(N[C@H](CO)c1ccccc1)c1ccc(-c2c[nH]c3nccc(C(F)(F)F)c23)s1", "63.1 µM"),
    ("COc1cc(-c2noc(CC#N)n2)ccc1OC(F)F", "> 100 µM"),
    ("O=C(NCc1ccc(Cl)cc1)C1CN(C(=O)c2ccc(F)cc2)CCS1 (stereo not given)", "> 100 µM"),
    ("CN(Cc1ccc(F)cc1)c1ccc(OCC(=O)N2CCCCC2c2cccnc2)nn1 (stereo not given)", "> 100 µM"),
    ("CC(C)n1c(-c2nonc2N)nc2cccc(OCCN3CCCC3)c21", "> 100 µM"),
    ("CN(Cc1nnnn1C1CCN(Cc2ccc(-n3ccnc3)cc2)CC1)c1ccc(F)cc1F", "> 100 µM"),
]

// IC50 at 48 h lookup, molecule = COc1ccc(-c2cc(C)no2)cc1S(=O)(=O)Nc1ccc(C)c(C)c1 , result: > 100 µM

Sure, the documented IC50 at 48 h for Cc1nc2c(-c3cccs3)c(C)nn2c(NCCO)c1C is > 100 µM

Field IC50 at 48 h (entry CCOC(=O)c1cn[nH]c1S(=O)(=O)N1CCC1c1ccccc1 (stereo not given) ) reads > 100 µM

Quick note, IC50 at 48 h for COCc1cc(Nc2cccc(Cl)c2)nc(-c2ccccn2)n1 landed at 39.8 µM

Kindly note the recorded IC50 at 48 h for Cc1cc2ncn(-c3ccc([N+](=O)[O-])cc3C#N)c2cc1C , which is > 100 µM

IC50 at 48 h recorded for this molecule, COc1ccc(S(=O)(=O)Nc2ccccc2OC)cc1NC(=O)CCCc1c[nH]c2ccccc12 , is > 100 µM

Note to self: IC50 at 48 h recorded for CCn1c(-c2nonc2N)nc2c([C@@H](C)O)ncc(O[C@H](CN)c3ccccc3)c21 was 79.4 µM
